# target-under-test: human recombinant serotonin (5-Hydroxytryptamine) 5-HT6 receptor (Homo sapiens)
# Construct: expressed in transfected cells; host or cells: human HeLa cells
# Sequence (P50406 whole entry): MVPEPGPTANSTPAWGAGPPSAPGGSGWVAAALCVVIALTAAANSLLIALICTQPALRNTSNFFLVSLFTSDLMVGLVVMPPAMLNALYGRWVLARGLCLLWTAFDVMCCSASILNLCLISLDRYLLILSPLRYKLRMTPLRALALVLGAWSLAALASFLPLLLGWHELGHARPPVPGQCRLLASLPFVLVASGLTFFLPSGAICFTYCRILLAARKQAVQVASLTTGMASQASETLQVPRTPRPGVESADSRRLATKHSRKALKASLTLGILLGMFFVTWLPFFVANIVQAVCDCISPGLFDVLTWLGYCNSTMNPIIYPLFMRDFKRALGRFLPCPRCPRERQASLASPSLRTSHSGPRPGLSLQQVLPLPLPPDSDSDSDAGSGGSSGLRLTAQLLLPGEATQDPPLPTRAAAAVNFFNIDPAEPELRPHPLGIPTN
# test-summary: Serotonin 5-HT6 radioligand binding ([3H]LSD)
# conditions: 2 h; read-out: Percent Inhibition of ligand binding Serotonin (1 μM ligand concentration) 5-HT6
# Method: To evaluate in radioligand binding assays the activity of compounds of the invention, human recombinant serotonin (5-Hydroxytryptamine) 5-HT6 receptor expressed in human HeLa cells (Monsma, F. J. Jr. et al., Mol. Pharmacol. 43:320, 1993) in a modified Tris-HCl buffer (50 mM Tris-HCl, pH 7.4, 150 mM NaCl, 2 mM Ascorbic Acid, 0.001% BSA) was used. […] Receptor proteins were filtered and washed, the filters were then counted to determine [3H]LSD specifically bound. […]
Exercise: state measured inhibition at 1 µM for each of the compounds provided.
Numbers only here, please. The scale is %.

Lookup: What inhibition at 1 µM value was documented for this compound, C#CCn1c2c(c3cc(Cl)ccc31)CCN(C)C2 ?
Found: 66

Lookup: Entry COc1ccc(/C(C)=C/n2c3c(c4cc(C)ccc42)CCN(C)C3)cc1F : reported inhibition at 1 µM = ?
Found: 33

Lookup: Param item = C/C(=C\n1c2c(c3cc(Cl)ccc31)CCN(C)C2C)c1ccc(Cl)c(Cl)c1 (stereo not drawn) ; retrieve measured inhibition at 1 µM.
Found: 40

Lookup: I have this compound here, Cc1ccc2c(c1)c1c(n2C(=O)Cc2ccc(Cl)cc2)CN(C)CC1 , and I need its recorded inhibition at 1 µM.
Found: 48

Lookup: // returns reported inhibition at 1 µM for input C/C(=C\n1c2c(c3cc(Cl)ccc31)CCN(C)C2)c1ccc(F)c(F)c1
Found: 73

Lookup: Would you kindly share the measured inhibition at 1 µM for CN1CCc2c(n(CCC3CCCC3)c3ccc(Cl)cc23)C1 ?
Found: 67

Lookup: Quick one: inhibition at 1 µM for CCC1c2c(c3cc(C)ccc3n2C#Cc2ccc(Cl)cc2)CCN1C (stereo not drawn) ?
Found: 12

Lookup: Dear colleague, I am looking for the recorded inhibition at 1 µM of the following compound: CC1CCN(C(=O)Cn2c3c(c4cc(Cl)ccc42)CCN(C)C3)CC1
Found: -2

Lookup: What measured inhibition at 1 µM goes with COc1ccc(C(O)Cn2c3c(c4cc(C)ccc42)CCN(C)C3)cc1OC (stereo not drawn) ?
Found: 5
